- system-tested: cryptococcal urease (Cryptococcus neoformans, UniProt O13465)
- Construct: 100 μL of crude protein extract; endogenous in cells
- Sequence (O13465 whole entry): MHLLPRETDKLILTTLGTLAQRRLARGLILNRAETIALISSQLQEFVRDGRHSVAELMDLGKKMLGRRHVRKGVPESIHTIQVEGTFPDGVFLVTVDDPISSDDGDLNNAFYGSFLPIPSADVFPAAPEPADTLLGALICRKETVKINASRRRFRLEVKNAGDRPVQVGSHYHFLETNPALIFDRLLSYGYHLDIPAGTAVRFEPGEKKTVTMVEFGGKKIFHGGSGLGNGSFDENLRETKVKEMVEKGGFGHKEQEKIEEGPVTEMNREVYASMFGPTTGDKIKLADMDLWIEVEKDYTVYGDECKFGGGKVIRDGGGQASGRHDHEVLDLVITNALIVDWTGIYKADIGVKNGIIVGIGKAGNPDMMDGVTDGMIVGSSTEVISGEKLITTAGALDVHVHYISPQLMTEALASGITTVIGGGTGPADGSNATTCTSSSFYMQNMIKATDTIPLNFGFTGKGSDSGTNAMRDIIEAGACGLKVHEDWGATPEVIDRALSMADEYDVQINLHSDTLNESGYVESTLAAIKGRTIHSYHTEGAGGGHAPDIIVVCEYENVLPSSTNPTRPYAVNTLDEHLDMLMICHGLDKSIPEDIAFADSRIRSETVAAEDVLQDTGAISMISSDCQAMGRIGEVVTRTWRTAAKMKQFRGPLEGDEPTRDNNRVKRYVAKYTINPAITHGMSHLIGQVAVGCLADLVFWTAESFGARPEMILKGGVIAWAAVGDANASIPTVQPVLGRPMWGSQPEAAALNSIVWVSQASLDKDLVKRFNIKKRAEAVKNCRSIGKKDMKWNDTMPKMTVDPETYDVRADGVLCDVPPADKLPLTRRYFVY
- experiment: Urease activity inhibition test (indophenol method, crude protein extract)
property-name: IC50 (µM)

[[record]]
molecule = "CCCCNC(=S)NC(=O)c1ccccc1 [BTU-01, N-(butylcarbamothioyl) benzamide]"
unit_abbrev = "µM"
endpoint_value = 226


----------
- experiment: Hemolysis assay
- Assay type: cell-based, human
- measurement-parameters: human, human erythrocyte suspension (3%); range over tested concentrations; compound alone; 3 h at 37°C; read-out: percentage of hemolysis
Reported hemolysis at 3 h by item:
property-name: hemolysis at 3 h

[[record]]
molecule = "C[C@@H]1[C@H](O)[C@@H](C)/C=C/C=C/C=C/C=C/C=C/C=C/C=C/[C@H](O[C@@H]2O[C@H](C)[C@@H](O)[C@H](N)[C@@H]2O)C[C@@H]2O[C@](O)(C[C@@H](O)C[C@@H](O)[C@H](O)CC[C@@H](O)C[C@@H](O)CC(=O)O[C@H]1C)C[C@H](O)[C@H]2C(=O)O"
endpoint_value = "0.52 to 1.34%"

[[record]]
molecule = "CCCCNC(=S)NC(=O)c1ccccc1 [BTU-01, N-(butylcarbamothioyl) benzamide]"
endpoint_value = "0 to 3.18%"


----------
- experiment: Cytotoxicity, MTT reduction assay
- Type: cell-based, human
- measurement-parameters: human, HEp-2 CCL-23 cells, 24 h, MTT
property-name: CC90 at 24 h (µg/mL)

[[record]]
compound = "CCCCNC(=S)NC(=O)c1ccccc1 [BTU-01, N-(butylcarbamothioyl) benzamide]"
endpoint_value = 245


----------
- experiment: Cytotoxicity, MTT reduction assay
- Type: cell-based
- measurement-parameters: rhesus monkey, LLC-MK2 cells, 24 h, MTT
property-name: CC50 at 24 h (µg/mL)

[[record]]
compound = "CCCCNC(=S)NC(=O)c1ccccc1 [BTU-01, N-(butylcarbamothioyl) benzamide]"
endpoint_value = 71.7


----------
- experiment: Cytotoxicity, MTT reduction assay
- Type: cell-based
- measurement-parameters: rhesus monkey, LLC-MK2 cells, 24 h, MTT
property-name: CC90 at 24 h

[[record]]
compound = "CCCCNC(=S)NC(=O)c1ccccc1 [BTU-01, N-(butylcarbamothioyl) benzamide]"
endpoint_value = "143 µg/mL"


----------
- experiment: Cytotoxicity, MTT reduction assay
- Assay type: cell-based
- measurement-parameters: human, HeLa cells, 24 h, MTT
property-name: CC50 at 24 h

[[record]]
molecule = "CCCCNC(=S)NC(=O)c1ccccc1 [BTU-01, N-(butylcarbamothioyl) benzamide]"
property_name = "CC50 at 24 h"
endpoint_value = "83.8 µg/mL"


----------
- experiment: Cytotoxicity, MTT reduction assay
- Format: cell-based, human
- measurement-parameters: human, HEp-2 CCL-23 cells, 24 h, MTT
property-name: CC50 at 24 h (µg/mL)

[[record]]
compound = "CCCCNC(=S)NC(=O)c1ccccc1 [BTU-01, N-(butylcarbamothioyl) benzamide]"
endpoint_value = 104


----------
- experiment: Cytotoxicity, MTT reduction assay
- Assay type: cell-based
- measurement-parameters: African green monkey, VERO CCL81 cells, 24 h, MTT
property-name: CC50 at 24 h (µg/mL)

[[record]]
compound = "CCCCNC(=S)NC(=O)c1ccccc1 [BTU-01, N-(butylcarbamothioyl) benzamide]"
endpoint_value = 121


// data source = paper PMC10028264
